# Lookup of reported GI50 keyed by entry
system: LOX IMVI; test: NCI tumour cell line growth inhibition, 48 h
Activity calls are given as the source filed them. Rule as the data show it: active = GI50 up to about 1.1 µM and inactive = higher.

Would you please look over these solved cases?
- compound: "CN1C(=O)CC2CCCN2C1=O (configuration not stated)"
  reported: "> 100 µM (inactive)"
- compound: "CCCCCCNCCCNc1c2ccccc2nc2cccc([N+](=O)[O-])c12"
  reported: "0.0193 µM (active)"
- compound: "C/N=c1/ss/c(=N\\C(SC)=[N+](C)C)n1C.[O-][Cl+3]([O-])([O-])[O-]"
  reported: "> 100 µM (inactive)"
- compound: "CC1=CCC[C@]2(C)C1=CC(=O)O[C@H]2c1ccoc1"
  reported: "> 100 µM (inactive)"
- compound: "CC1=C(/C=C/C(C)=C/C2CC(N(C)C)=CC(=O)O2)C(C)(C)CCC1 (configuration not stated)"
  reported: "15.2 µM (inactive)"

Exercise: Give GI50 for the following compound: O=C1C[S+]([O-])c2ccccc2N1 (configuration not stated)
Solution: 52.6 µM (inactive)

Exercise: Give GI50 for the following compound: O=C1CSC(c2ccc(Cl)cc2)N1c1ccc(-c2ccc(-n3c(-c4ccccc4)nc4ccccc4c3=O)cc2)cc1 (configuration not stated)
Solution: 17.7 µM (inactive)

Exercise: Give GI50 for the following compound: O/N=C1\C(=C\c2ccc3c(c2)OCCO3)CCCC1C(NO)c1ccc2c(c1)OCCO2 (configuration not stated)
Solution: 15.7 µM (inactive)

Exercise: Give GI50 for the following compound: COc1ccc(C2(O)C(S(=O)(=O)c3ccc(C)cc3)=Cc3ccc(OC)cc32)cc1 (configuration not stated)
Solution: > 100 µM (inactive)

Exercise: Give GI50 for the following compound: `Cc1ccc(N2C(=O)C=C(C3=C(O)C(=O)N(c4ccc(C)cc4)C3=O)C2=O)cc1`
Solution: > 100 µM (inactive)

Exercise: Give GI50 for the following compound: `CCOc1ccc(/C=C2\NC(=S)N(/C=C3\C(=O)Oc4ccccc4C3=O)C2=O)cc1`
Solution: 28.9 µM (inactive)

Exercise: Give GI50 for the following compound: `O=C1c2c(Br)sc(Br)c2[C@@H](O)[C@H]1O`
Solution: 7.13 µM (inactive)

Exercise: Give GI50 for the following compound: `O=c1oc2ccccc2cc1-c1nnc(-c2ccccc2)s1`
Solution: > 72.8 µM (inactive)

Exercise: Give GI50 for the following compound: CC(C)(C)C1CCC2c3c([nH]c4ccccc34)C3C(=O)N(c4cccc(Cl)c4)C(=O)C3C2C1 (configuration not stated)
Solution: 7.48 µM (inactive)

Exercise: Give GI50 for the following compound: COC(=O)c1ccccc1C1CN=NC12Cc1c(ccc3c1CCC3)C2=O (configuration not stated)
Solution: 23.8 µM (inactive)

---

system: RXF 393; experiment: NCI tumour cell line growth inhibition, 48 h
The source made the active and inactive calls. Rule as the data show it: active = GI50 up to about 1.1 µM and inactive = higher.
Form entry, call: pick from active, inactive

- molecule: "COc1c(OC(C)=O)c(OC(C)=O)cc2c1-c1ccc(SC)c(=O)cc1C(NC(C)=O)CC2 (stereo not drawn)"
  label-value: "inactive"
- molecule: "CCOC(=O)C(C(N)=O)C1=Nc2cc([N+](=O)[O-])ccc2N/C1=C\\C(=O)c1ccc(C)cc1 (stereo not drawn)"
  label-value: "inactive"
- molecule: "CC1=CC(=O)/C(=C/NC(=S)NCc2ccccc2)C(=O)O1"
  label-value: "inactive"
- molecule: "COc1cc(/C=C(\\C#N)C(N)=C(C#N)C#N)cc(O)c1O"
  label-value: "inactive"
- molecule: "CCn1c2ccc(C(=O)CCCN(C)C)cc2c2cc(C(=O)CCCN(C)C)ccc21"
  label-value: "inactive"

Exercise: Assay outcome for `Cc1c(OCCCOc2ccc3c(=O)cc(-c4ccccc4)oc3c2C)ccc2c(=O)cc(-c3ccccc3)oc12` : what was it?
Solution: inactive
